Source of measurements: the FLAb antibody collection (doi:10.7554/elife.23156)

B1: scFv; the commonest letter at each place (parent)
chain 1: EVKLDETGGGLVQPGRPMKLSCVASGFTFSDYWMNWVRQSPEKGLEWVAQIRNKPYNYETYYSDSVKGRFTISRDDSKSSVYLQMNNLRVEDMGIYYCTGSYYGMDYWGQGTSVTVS
chain 2: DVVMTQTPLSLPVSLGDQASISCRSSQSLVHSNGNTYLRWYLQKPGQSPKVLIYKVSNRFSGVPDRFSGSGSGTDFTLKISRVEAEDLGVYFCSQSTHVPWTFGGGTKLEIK

Variants of: B1
procedure details: yeast surface expression (ratio to wild type); higher = more expressed
conditions used: format: scFv 4-4-20, heavy + light
observation type: yeast surface expression
Output spec: single numeric token, no unit.

{"mutant": "chain 1 Y32G N35V", "yeast surface expression": 0.513}
{"mutant": "chain 1 T28H W36G", "yeast surface expression": 2.76}
{"mutant": "chain 1 D106T W108Q", "yeast surface expression": 0.5}
{"mutant": "chain 1 G100Y Y107W", "yeast surface expression": 0.468}
{"mutant": "chain 1 Y103Q D106M", "yeast surface expression": 0.805}

Reported yeast surface expression for chain 1 F29L S30T V37W : what is it? 0.536

Reported yeast surface expression for chain 1 M34P W36N : what is it? 0.506
